# TARGET: ZIKV NS2B-NS3 protease (ZIKVpro) (Zika virus, UniProt A0A024B7W1)
# Construct: The cDNA coding for residues 45–96 of ZIKV NS2B; the N terminus of NS3 (residues 1–177); poly-histidine tag (C); made in house; host or cells: E. coli BL21(DE3), pET28a (NcoI/XhoI)
# Sequence (A0A024B7W1 1417-1468): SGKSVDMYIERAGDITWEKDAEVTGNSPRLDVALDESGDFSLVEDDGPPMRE
# Sequence (A0A024B7W1 1503-1679): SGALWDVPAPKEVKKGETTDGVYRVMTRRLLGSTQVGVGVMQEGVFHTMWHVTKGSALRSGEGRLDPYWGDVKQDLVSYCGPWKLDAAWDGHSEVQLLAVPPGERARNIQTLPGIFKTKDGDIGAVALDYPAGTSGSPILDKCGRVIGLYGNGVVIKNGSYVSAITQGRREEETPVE
# TEST: fluorescence-based ZIKVpro protease inhibition screening assay (Bz-nKKR-AMC substrate)
# Format: biochemical
# CONDITIONS: 150 nM ZIKVpro, 1 h preincubation at 37 °C, 50 μM Bz-nKKR-AMC
# key: entry, value: IC50
Put down the number, then write its unit next to it.

INSERT INTO measurements (molecule, value_measured) VALUES
  ('CCCCCCCCCCCCCc1cccc(O)c1C(=O)O [ZP9]', '1.42 µM');

In the following, a different molecule is considered.
stdin: # value lookup — system ZIKV NS2B-NS3 protease (ZIKVpro) (Zika virus, UniProt A0A024B7W1), readout IC50, item O=c1c(O)c(-c2cc(O)c(O)c(O)c2)oc2cc(O)cc(O)c12 [Myricetin, myricetin]
stdout: 48.7 µM

Where these numbers come from: paper PMC7609463
